Target: human 5HT2C receptor (Homo sapiens, UniProt P28335)
Sequence (P28335 33-458): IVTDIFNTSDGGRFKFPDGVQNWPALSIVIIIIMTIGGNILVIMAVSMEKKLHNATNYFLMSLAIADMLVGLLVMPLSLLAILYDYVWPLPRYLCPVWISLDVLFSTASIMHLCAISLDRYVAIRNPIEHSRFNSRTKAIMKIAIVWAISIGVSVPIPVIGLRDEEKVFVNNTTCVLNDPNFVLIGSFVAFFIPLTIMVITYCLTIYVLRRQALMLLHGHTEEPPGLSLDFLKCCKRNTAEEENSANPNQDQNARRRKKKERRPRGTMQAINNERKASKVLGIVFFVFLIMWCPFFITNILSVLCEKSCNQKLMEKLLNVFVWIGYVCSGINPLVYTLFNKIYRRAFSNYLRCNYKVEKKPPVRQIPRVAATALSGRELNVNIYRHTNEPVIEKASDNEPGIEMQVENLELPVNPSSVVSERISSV
Experiment: Intracellular IP3 accumulation assay (IP Accumulation Assay)
Conditions: HEK293 cells transfected with human 5HT2C receptor cDNA
Readout Label: EC50 (nM)
Please give a number only; it is taken to be in nM.

# EC50 measured on human 5HT2C receptor (Homo sapiens, UniProt P28335) for item C[C@@H]1CNCCN1c1cc(Cl)ccc1F = 8

EC50 value, target or system human 5HT2C receptor (Homo sapiens, UniProt P28335), for C[C@@H]1CNCCN1c1cccc(Cl)c1F : 7.4
